I'd be grateful if you could share measured CC50 for these entries.
Assay: NOVARTIS: Cytotoxicity against human hepatocellular carcinoma cell line (Huh7)
Assay type: toxicity, cell-based, Huh-7
Settings: Huh7 cells (hepatocellular carcinoma cell line)

Task: Please give the documented CC50 of CN(C)CCN1CCN(c2cccc(-c3cccc4cccnc34)n2)CC1
Output: 18.8 µM

Task: Please give the documented CC50 of CC(=O)N(C=C1Sc2ccccc2C1=O)c1ccc(C)cc1
Output: > 100 µM

Task: Please give the documented CC50 of O=C(O)CSc1ccc(C(=O)NC2CCCCNC2=O)cn1 (stereo not drawn)
Output: > 10 µM

Task: Please give the documented CC50 of Cc1ccc(C=NNC(=O)c2nnn(-c3nonc3N)c2-c2ccc([N+](=O)[O-])cc2)cc1
Output: > 73 µM

Task: Please give the documented CC50 of Clc1cc(N2CCCCC2)c(Cl)nn1
Output: > 10 µM

Task: Please give the documented CC50 of COc1cccc(C(=O)NC(c2ccccc2OC)c2cc(Cl)c3cccnc3c2O)c1 (stereo not drawn)
Output: > 100 µM

Task: Please give the documented CC50 of CN(C)c1nc(Cl)nc(N(C#N)CCOc2ccccc2)n1
Output: > 10 µM

Task: Please give the documented CC50 of CN(C)c1ccc(NC(=O)c2cccnc2C(=O)O)cc1
Output: 7.84 µM

Task: Please give the documented CC50 of CN(C)c1cc[n+](CC(=O)c2cccs2)cc1
Output: > 100 µM

Task: Please give the documented CC50 of Cc1ccc(C(=O)NCCN2CCCCC2)cn1
Output: > 10 µM

Task: Please give the documented CC50 of CCOC(=O)c1ccc(-c2c(-c3cc(CC)c(OC)cc3O)noc2C)o1
Output: 13.8 µM

Task: Please give the documented CC50 of CCNC1=C(C(=O)c2ccccc2)N(CC(=O)c2ccc(Br)cc2)S(=O)(=O)c2ccccc21
Output: > 10 µM

Task: Please give the documented CC50 of CC(C)C1N=C2c3ccccc3N=C(SCC(=O)Nc3cc(C(F)(F)F)ccc3Cl)N2C1=O (stereo not drawn)
Output: > 100 µM

Task: Please give the documented CC50 of Cc1cc(C)c2nc(SCC(=O)Nc3ccc4c(c3)OCCO4)cc(C)c2c1
Output: > 10 µM

Task: Please give the documented CC50 of O=C(CCNS(=O)(=O)c1ccc(Br)s1)N1CCc2ccccc2C1
Output: > 100 µM

Task: Please give the documented CC50 of COc1cc(NC(C)CCCN(Cc2ccc(N(C)C)cc2)S(=O)(=O)c2c(C)cc(C)cc2C)c2ncccc2c1 (stereo not drawn)
Output: > 10.6 µM

Task: Please give the documented CC50 of Cc1cc(N2CCN(CC=Cc3ccccc3)CC2)n2c(nc3ccccc32)c1C#N
Output: > 100 µM

Task: Please give the documented CC50 of CCOc1ccc(NCc2ccc(O)c3ncccc23)cc1
Output: > 55.6 µM

Task: Please give the documented CC50 of O=C1C(Sc2nnc[nH]2)=CC(=NS(=O)(=O)c2cccs2)c2ccccc21
Output: 6.91 µM

Task: Please give the documented CC50 of COc1cccc(CN2CCN(C3CCCC(C)C3)CC2)c1OC (stereo not drawn)
Output: > 100 µM

Task: Please give the documented CC50 of CC(C)NC(=O)[C@@H]1C[C@@H](NCc2cccnc2)CN1Cc1ccc2ccccc2c1
Output: > 100 µM

Task: Please give the documented CC50 of COc1ccc(S(=O)(=O)Nc2ccc(N3CCC(Cc4ccccc4)CC3)c(C(=O)NC(C)C)c2)cc1
Output: > 100 µM

Task: Please give the documented CC50 of COc1ccc(-n2c(S)nnc2CNc2cccc(C(F)(F)F)c2)cc1
Output: > 100 µM

Task: Please give the documented CC50 of CCOC(=O)c1c(S(=O)(=O)N2CCCC(C(=O)N3CCN(c4cccc(C)c4C)CC3)C2)c(C)n(C)c1C (stereo not drawn)
Output: > 100 µM

Task: Please give the documented CC50 of COC(=O)C1=C(C)NC2=C(C(=O)CC(c3ccc(OC)c(OC)c3)C2)C1c1ccc(Cl)cc1Cl (stereo not drawn)
Output: > 100 µM

Task: Please give the documented CC50 of CN(C)CCNc1cc(-c2cccc(C(F)(F)F)c2)nc(-c2ccncc2)n1
Output: > 10 µM

Task: Please give the documented CC50 of O=c1c2c([nH]c3ccccc13)CCCC2
Output: > 100 µM

Task: Please give the documented CC50 of CC(=O)N1c2ccccc2C(C)(c2ccc(Br)cc2)CC1(C)C (stereo not drawn)
Output: 71.4 µM

Task: Please give the documented CC50 of CCOc1ccc2nc3cc(NCc4ccco4)ccc3c(N)c2c1
Output: 37.9 µM

Task: Please give the documented CC50 of CN(CCCNc1ccnc2cc(Cl)ccc12)C(=O)/C=C/c1ccccc1
Output: > 10 µM

Task: Please give the documented CC50 of COCCCNC(=O)CSCc1nc(-c2ccccc2F)oc1C
Output: > 10 µM

Task: Please give the documented CC50 of Cc1nc([P+](c2ccccc2)(c2ccccc2)c2ccccc2)c(SCc2ccccc2)o1.[O-][Cl+3]([O-])([O-])[O-]
Output: 68.3 µM

Task: Please give the documented CC50 of COC(=O)c1ccccc1NC(=O)COc1cccc(OC)c1
Output: > 10 µM

Task: Please give the documented CC50 of Cc1ccc(N2C(=O)C3C(C2=O)C2(c4ccccc4)C(=O)C3(c3ccccc3)C(c3ccccc3)=C2c2ccccc2)cc1Br (stereo not drawn)
Output: > 10 µM

Task: Please give the documented CC50 of O=C(Nc1ccc2nc3n(c(=O)c2c1)CCCCC3)C(=O)N1CCN(c2ccccc2)CC1
Output: > 100 µM

Task: Please give the documented CC50 of COc1ccc([N+](=O)[O-])cc1N(CC1CO1)S(=O)(=O)c1ccc(C)cc1 (stereo not drawn)
Output: > 100 µM

Task: Please give the documented CC50 of NC(Cc1ccccc1)C(=O)N1CCC(Nc2nsc3ccccc23)C1 (stereo not drawn)
Output: 12.7 µM

Task: Please give the documented CC50 of Cc1cc(F)ccc1NC(=O)C(C)n1c2ccccc2c2nc(=O)cc(C)n21 (stereo not drawn)
Output: > 100 µM

Task: Please give the documented CC50 of CCCCNC(=O)C(CC(C)C)N1C(=O)c2cc(NC(C)=O)ccc2NC(=O)[C@@H]1C (stereo partly drawn)
Output: > 12.8 µM

Task: Please give the documented CC50 of Cc1c(C=O)c2ccccc2n1CC(=O)Nc1cccc(I)c1
Output: > 61.2 µM

Task: Please give the documented CC50 of Cc1ccc(CN2C(=O)C(O)(CC(=O)c3ccccc3)c3ccccc32)cc1 (stereo not drawn)
Output: > 64.5 µM

Task: Please give the documented CC50 of O=C(O)CC/C(=C1/C=C(c2ccc(Cl)cc2)NC1=O)c1ccc(Cl)cc1
Output: > 10 µM

Task: Please give the documented CC50 of CCC(C)N1CCN(Cc2cccc(OC)c2OC)CC1 (stereo not drawn)
Output: > 10 µM
